# System: HT-29
# measurement.description: Concentration required to inhibit HT-29 (human colon adenocarcinoma) cell lines
# Assay type: functional, cell-based
reported.endpoint: pIC50
Worth noting: pIC50 values are minus log10 of concentrations stated in mol/L.

> print(dat)
                        line.notation  experimental.value
1  Cc1ccc2nc(N)[nH]c(=O)c2c1Sc1ccncc1                5.43

The molecule Cc1ccc2nc(N)nc(O)c2c1Sc1ccc(C(=O)N[C@H](C(=O)O)c2cccc(O)c2)cc1 showed pIC50 equal to 4.77

The molecule identified as Cc1ccc2nc(N)nc(O)c2c1Sc1ccc(C(=O)N[C@H](C(=O)O)c2cccc(C(=O)O)c2)cc1 registered its pIC50 at 5.92

# molecule COC(=O)[C@@H](NC(=O)c1ccc(Sc2c(C)ccc3nc(N)nc(O)c23)cc1)c1cccc(O)c1 ; its pIC50 = 5.08

// field: pIC50; key: COC(=O)[C@@H](NC(=O)c1ccc(Sc2c(C)ccc3nc(N)nc(O)c23)cc1)c1ccccc1 ; value = 6.22

Entry COC(=O)c1cccc([C@H](NC(=O)c2ccc(Sc3c(C)ccc4nc(N)nc(O)c34)cc2)C(=O)OC)c1 ; pIC50 = 6.22
